Where these numbers come from: patent US9808466B2

# testTarget: PI3K (p110α/p85α) (Homo sapiens, UniProt P42336)
# Construct: purchased Carna Biosciences 07CBS-0402A
# Sequence (P42336 whole entry): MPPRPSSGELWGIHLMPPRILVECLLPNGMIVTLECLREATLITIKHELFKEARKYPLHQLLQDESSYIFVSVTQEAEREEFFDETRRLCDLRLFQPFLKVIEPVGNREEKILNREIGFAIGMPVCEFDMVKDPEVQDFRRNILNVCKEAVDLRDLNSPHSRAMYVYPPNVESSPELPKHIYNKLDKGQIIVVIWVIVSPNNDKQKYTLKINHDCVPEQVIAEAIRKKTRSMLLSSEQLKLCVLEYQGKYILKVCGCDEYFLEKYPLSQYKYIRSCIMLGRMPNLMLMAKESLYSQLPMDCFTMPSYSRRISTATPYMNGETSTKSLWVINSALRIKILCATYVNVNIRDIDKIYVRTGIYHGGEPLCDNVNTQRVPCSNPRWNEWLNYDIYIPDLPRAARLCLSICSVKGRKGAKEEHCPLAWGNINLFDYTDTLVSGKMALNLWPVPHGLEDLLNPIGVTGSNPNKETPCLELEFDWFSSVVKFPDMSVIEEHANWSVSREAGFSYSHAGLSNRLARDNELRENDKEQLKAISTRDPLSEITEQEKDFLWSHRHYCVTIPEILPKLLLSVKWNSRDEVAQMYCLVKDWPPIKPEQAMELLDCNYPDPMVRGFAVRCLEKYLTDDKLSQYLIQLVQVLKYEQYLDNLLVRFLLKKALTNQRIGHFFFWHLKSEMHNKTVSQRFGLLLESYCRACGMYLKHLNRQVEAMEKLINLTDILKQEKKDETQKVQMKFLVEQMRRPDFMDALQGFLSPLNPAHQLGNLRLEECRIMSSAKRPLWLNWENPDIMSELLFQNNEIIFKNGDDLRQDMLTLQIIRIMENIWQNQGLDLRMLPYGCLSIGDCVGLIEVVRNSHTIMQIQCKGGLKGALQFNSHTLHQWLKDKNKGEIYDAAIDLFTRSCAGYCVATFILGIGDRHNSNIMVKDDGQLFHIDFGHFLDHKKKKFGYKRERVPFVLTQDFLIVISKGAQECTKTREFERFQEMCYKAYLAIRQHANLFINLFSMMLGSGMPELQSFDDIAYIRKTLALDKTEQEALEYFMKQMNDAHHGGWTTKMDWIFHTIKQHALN
# Sequence (P27986 whole entry partner): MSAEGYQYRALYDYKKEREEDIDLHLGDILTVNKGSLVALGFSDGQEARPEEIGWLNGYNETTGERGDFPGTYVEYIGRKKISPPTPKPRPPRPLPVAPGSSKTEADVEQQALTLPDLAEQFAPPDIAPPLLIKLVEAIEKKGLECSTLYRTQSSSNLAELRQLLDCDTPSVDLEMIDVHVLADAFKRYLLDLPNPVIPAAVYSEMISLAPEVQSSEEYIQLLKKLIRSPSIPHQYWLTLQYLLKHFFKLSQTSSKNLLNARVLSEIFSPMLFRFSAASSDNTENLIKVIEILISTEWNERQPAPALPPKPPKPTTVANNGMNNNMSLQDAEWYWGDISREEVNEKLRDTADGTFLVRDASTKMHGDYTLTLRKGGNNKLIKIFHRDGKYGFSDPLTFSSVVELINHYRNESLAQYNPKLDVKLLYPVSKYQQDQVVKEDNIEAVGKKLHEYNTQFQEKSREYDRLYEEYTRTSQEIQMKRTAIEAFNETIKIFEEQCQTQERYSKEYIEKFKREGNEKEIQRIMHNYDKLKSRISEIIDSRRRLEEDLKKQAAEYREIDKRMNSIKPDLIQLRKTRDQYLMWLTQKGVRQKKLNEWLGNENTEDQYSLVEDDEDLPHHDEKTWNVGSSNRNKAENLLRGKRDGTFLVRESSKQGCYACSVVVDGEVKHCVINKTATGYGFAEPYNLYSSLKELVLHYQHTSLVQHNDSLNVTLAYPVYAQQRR
# testProtocol: PI3K activity assay (ADP Hunter Plus)
# Assay type: biochemical
# recordedConditions: read-out: PI3K alpha actual IC50 (in parentheses)
pIC50: −log10 of the molar value.
Short version: pIC50 at least 8 is True, less is False.

> print(dat)
                                  chemsmiles  answerlabel
 1  COc1ncc2cc1NS(=O)(=O)c1cccc(c1)C(=O)NCc1cncc(c1)-c1cnn3ccc-2nc13         True
 2  COc1ncc2cc1NS(=O)(=O)c1cc(c(F)cc1F)C(=O)NCc1cncc(c1)-c1ccnc3ccc-2cc13         True
 3  COc1ncc2cc1NS(=O)(=O)c1cccc(c1)C(=O)NCCN1CC=C(CC1)c1cnc3ccc-2nn13         True
 4  O=C1NCc2cncc(c2)-c2ncnc3c2SC(=C3)c2cnc(Cl)c(c2)NS(=O)(=O)c2cccc1c2         True
 5  COc1ncc2cc1NS(=O)(=O)c1cccc(c1)C(=O)NCc1cccc(c1)-c1cnc3ccc-2nn13         True
 6  COc1ncc2cc1NS(=O)(=O)c1cccc(c1)C(=O)NCC1CCN(CC1)c1ncnc3ccc-2cc13         True
 7  COc1ncc2cc1NS(=O)(=O)c1ccc(F)c(c1)C(=O)NCC1=CC=C(S1)c1ncnc3c1SC2=C3        False
 8  COc1ncc2cc1NS(=O)(=O)c1cccc(c1)C(=O)N1CCc3ccc(cc3C1)-c1ccnc3ccc-2cc13         True
 9  COc1ncc2cc1NS(=O)(=O)c1cccc(c1)C(=O)NCc1cncc(c1)-c1ccnc3ccc-2nc13         True
10  COc1ncc2cc1NS(=O)(=O)c1cccc(c1)C(=O)NCCn1cc(cn1)-c1cnc3ccc-2nn13         True
11  COc1ncc2cc1NS(=O)(=O)c1cccc(c1)C(=O)NCc1cncc(c1)-c1ncnc3ccc-2cc13         True
12  COc1ncc2cc1NS(=O)(=O)c1cccc(c1)C(=O)NCc1cc(ccn1)-c1ccnc3ccc-2cc13        False
13  COc1ncc2cc1NS(=O)(=O)c1cccc(c1)C(=O)Nc1cncc(c1)-c1ncnc3c1SC2=C3        False
14  COc1ncc2cc1NS(=O)(=O)c1cccc(c1)C(=O)NCCn1cc(cn1)-c1ccnc3ccc-2cc13         True
15  COc1ncc2cc1NS(=O)(=O)c1cccc(c1)C(=O)NCc1cncc(c1)-c1ncnc3sc-2cc13        False
16  COc1ncc2cc1NS(=O)(=O)c1cccc(c1)C(=O)NCc1cccc(c1)-c1ncnc3sc-2cc13        False
17  COc1ncc2cc1NS(=O)(=O)c1cccc(c1)C(=O)NCc1cncc(c1)-c1ccnc3ccc-2cc13         True
18  COc1ncc2cc1NS(=O)(=O)c1cccc(c1)C(=O)NCc1cccc(c1)-c1cnn3ccc-2nc13         True
19  COc1ncc2cc1NS(=O)(=O)c1cccc(c1)C(=O)NCc1ccc(F)c(c1)-c1ccnc3ccc-2cc13         True
20  COc1ncc2cc1NS(=O)(=O)c1cccc(c1)C(=O)NCc1cccc(c1F)-c1ccnc3ccc-2cc13        False
21  O=C1NCc2cncc(c2)-c2ccnc3ccc(cc23)-c2cncc(c2)NS(=O)(=O)c2cccc1c2        False
22  COc1ncc2cc1NS(=O)(=O)c1cccc(c1)C(=O)NCc1cncc(c1)-c1cnc3ccc-2nn13         True
